All figures here come from ChEMBL document CHEMBL3779840.

target: Mast/stem cell growth factor receptor Kit (Homo sapiens); assay: Inhibition of His-tagged recombinant human c-Kit […] expressed in mammalian expression system
Sequence (P10721 whole entry): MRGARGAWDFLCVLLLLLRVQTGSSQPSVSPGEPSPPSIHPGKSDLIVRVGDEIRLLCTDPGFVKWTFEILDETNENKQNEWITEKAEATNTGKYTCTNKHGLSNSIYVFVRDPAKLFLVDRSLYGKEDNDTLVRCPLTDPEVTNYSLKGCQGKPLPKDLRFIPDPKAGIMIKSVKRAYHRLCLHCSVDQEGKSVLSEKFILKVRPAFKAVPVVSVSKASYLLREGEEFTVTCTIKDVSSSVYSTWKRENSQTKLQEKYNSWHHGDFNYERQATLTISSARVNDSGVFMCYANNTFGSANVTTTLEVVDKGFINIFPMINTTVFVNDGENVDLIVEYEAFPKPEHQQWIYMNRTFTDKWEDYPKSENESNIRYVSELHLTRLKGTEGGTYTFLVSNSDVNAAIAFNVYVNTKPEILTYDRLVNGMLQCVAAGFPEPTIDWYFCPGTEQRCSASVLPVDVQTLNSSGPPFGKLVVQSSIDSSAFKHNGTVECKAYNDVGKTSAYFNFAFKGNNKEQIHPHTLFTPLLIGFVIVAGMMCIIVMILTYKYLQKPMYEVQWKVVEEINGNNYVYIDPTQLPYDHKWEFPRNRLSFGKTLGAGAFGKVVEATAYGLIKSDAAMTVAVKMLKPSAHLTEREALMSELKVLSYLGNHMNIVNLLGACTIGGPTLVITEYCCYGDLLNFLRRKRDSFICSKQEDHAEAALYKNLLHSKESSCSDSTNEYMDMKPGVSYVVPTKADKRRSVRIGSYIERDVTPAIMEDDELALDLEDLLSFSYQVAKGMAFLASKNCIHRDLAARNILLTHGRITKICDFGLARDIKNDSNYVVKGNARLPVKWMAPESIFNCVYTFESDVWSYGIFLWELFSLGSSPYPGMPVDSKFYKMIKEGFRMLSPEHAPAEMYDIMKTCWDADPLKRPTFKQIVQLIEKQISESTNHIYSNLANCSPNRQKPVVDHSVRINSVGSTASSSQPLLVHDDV
pIC50: −log10 of the molar value.
value type: pIC50

Can you look up the measured pIC50 of CNc1nc(Nc2ccc(C)c(N)c2)ncc1C(=O)Nc1cc(NC(=O)c2cccc(C(F)(F)F)c2)ccc1C for me?
< 5.00

---

target: Tyrosine-protein kinase HCK (Homo sapiens) (UniProt P08631); conditions: BaF3
Sequence (P08631 2-526 limits assumed): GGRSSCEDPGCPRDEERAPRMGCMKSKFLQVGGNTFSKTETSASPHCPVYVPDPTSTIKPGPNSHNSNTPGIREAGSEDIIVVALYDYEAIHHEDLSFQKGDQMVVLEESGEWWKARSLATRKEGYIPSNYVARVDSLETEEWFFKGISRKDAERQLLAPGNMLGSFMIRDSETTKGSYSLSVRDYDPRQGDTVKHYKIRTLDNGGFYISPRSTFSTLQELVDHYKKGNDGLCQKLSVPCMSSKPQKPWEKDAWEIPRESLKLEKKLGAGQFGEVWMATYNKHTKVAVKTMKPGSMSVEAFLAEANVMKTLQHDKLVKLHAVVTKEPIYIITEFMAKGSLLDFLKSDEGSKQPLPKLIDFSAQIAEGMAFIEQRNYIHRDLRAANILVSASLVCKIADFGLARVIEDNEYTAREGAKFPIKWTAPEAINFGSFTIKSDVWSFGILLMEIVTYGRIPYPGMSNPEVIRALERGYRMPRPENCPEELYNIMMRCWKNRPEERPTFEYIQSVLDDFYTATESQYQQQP
Description: Inhibition of TEL-HCK (unknown origin) expressed in mouse BA/F3 cells assessed as growth inhibition after 72 hrs by CellTiter-Glo or CCK-8 assay
value type: GI50 (µM)
Numbers only, in µM.

Illustrative cases are given below, each with its answer.
- smiles: "CNc1nc(Nc2ccc(C)c(N)c2)ncc1C(=O)Nc1cc(NC(=O)c2cccc(C(F)(F)F)c2)ccc1C"
  measurement target: "Tyrosine-protein kinase HCK (Homo sapiens) (UniProt P08631)"
  GI50 [µM]: 0.98
- smiles: "Cc1ccc(NC(=O)c2ccc(CN3CCN(C)CC3)cc2)cc1Nc1nccc(-c2cccnc2)n1"
  measurement target: "Tyrosine-protein kinase HCK (Homo sapiens) (UniProt P08631)"
  GI50 [µM]: 9.7
- smiles: "Cc1nc(Nc2ncc(C(=O)Nc3c(C)cccc3Cl)s2)cc(N2CCN(CCO)CC2)n1"
  measurement target: "Tyrosine-protein kinase HCK (Homo sapiens) (UniProt P08631)"
  GI50 [µM]: 0.039

Query compound follows.
Can you look up the measured GI50 of Cc1cn(-c2cc(NC(=O)c3ccc(C)c(Nc4nccc(-c5cccnc5)n4)c3)cc(C(F)(F)F)c2)cn1 for me?
4.1

---

assay: Antiproliferative activity against mouse BA/F3 cells assessed as cell viability after 72 hrs by CellTiter-Glo or CCK-8 assay; type: cell-based, BaF3
value type: GI50 at 72 h (µM)
One number for each entry, in µM.

Illustrative cases are given below, each with its answer.
- smiles: "Cc1ccc(NC(=O)c2cccc(C(F)(F)F)c2)cc1N1Cc2cnc(NC3CCN(C(=O)OC(C)(C)C)CC3)nc2N(C)C1=O"
  unit abbreviation: "µM"
  GI50 at 72 h: 7.52
- smiles: "Cc1ccc(Nc2ncc3c(n2)N(C)C(=O)N(c2cc(NC(=O)c4cccc(C(F)(F)F)c4)ccc2C)C3)cc1"
  unit abbreviation: "µM"
  GI50 at 72 h: 8
- smiles: "Cc1ccc(NC(=O)c2cccc(C(F)(F)F)c2)cc1N1Cc2cnc(NC3CCNCC3)nc2N(C)C1=O"
  unit abbreviation: "µM"
  GI50 at 72 h: 3

Provide reported GI50 at 72 h for each item, in the same order as listed.
1. Cc1ccc(Nc2ncc3c(n2)N(C)C(=O)N(c2cc(NC(=O)c4cccc(C(F)(F)F)c4)ccc2C)C3)cc1C
2. CNc1nc(Nc2ccc(C)c([N+](=O)[O-])c2)ncc1C(=O)Nc1cc(NC(=O)c2ccc(OC)c(OC)c2)ccc1C

1. 3.76
2. 7.3

---

target: Transcription factor ETV6/Tyrosine-protein kinase ABL1 (Homo sapiens) (UniProt P00519+P41212); settings: BaF3
Sequence (P00519 whole entry, looked up): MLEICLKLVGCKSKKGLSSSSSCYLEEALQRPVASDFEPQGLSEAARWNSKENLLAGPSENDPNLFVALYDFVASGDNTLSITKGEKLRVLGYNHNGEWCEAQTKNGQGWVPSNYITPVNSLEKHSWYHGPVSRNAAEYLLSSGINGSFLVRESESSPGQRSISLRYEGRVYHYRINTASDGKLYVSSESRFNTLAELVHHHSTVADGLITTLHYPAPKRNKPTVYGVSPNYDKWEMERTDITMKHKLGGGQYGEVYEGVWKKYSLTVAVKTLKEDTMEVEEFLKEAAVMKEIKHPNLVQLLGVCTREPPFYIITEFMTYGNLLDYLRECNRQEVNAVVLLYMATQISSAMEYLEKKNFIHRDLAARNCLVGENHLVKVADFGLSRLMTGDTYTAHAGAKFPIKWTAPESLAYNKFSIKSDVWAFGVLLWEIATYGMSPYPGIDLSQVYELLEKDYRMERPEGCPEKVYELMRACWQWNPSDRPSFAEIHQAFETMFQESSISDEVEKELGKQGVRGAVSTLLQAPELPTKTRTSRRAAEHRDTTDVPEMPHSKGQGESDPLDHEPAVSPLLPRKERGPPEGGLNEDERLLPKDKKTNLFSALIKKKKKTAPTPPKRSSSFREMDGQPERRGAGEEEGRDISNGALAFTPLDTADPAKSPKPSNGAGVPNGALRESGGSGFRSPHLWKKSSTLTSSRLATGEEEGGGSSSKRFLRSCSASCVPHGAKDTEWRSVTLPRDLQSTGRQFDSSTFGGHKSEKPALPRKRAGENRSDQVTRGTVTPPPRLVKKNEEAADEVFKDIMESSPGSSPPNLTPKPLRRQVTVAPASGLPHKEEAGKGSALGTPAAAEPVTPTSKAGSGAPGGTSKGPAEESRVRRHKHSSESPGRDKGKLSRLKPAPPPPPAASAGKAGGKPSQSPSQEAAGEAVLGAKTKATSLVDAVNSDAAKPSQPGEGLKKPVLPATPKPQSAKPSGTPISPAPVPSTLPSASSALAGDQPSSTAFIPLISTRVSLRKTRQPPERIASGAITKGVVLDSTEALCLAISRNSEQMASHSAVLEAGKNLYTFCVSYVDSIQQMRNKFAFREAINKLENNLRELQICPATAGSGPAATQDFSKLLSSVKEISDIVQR
Sequence (P41212 whole entry, looked up): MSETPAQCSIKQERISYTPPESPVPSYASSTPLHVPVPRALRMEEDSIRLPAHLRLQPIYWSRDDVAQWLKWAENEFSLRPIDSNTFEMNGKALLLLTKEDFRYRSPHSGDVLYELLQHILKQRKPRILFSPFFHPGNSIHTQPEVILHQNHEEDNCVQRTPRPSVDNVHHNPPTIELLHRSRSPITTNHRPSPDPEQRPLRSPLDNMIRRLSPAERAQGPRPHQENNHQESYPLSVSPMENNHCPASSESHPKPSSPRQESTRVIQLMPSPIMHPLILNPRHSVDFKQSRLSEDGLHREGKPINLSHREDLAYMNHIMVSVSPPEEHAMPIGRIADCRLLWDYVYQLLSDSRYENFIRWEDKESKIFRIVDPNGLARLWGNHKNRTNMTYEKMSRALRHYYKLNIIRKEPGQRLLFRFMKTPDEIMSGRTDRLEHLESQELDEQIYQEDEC
Description: Inhibition of Tel-ABL (unknown origin) expressed in mouse BA/F3 cells assessed as cell growth inhibition after 72 hrs by CellTiter-Glo or CCK-8 assay
value type: GI50 (nM)
Numbers only, in nM.

Illustrative cases are given below, each with its answer.
- smiles: "CNc1nc(Nc2ccc(C)c([N+](=O)[O-])c2)ncc1C(=O)Nc1cc(NC(=O)c2cccc(C(F)(F)F)c2)ccc1C"
  GI50 [nM]: 87
- smiles: "Cc1ccc(NC(=O)c2cccc(C(F)(F)F)c2)cc1N1Cc2cnc(O[C@H]3CCN(C(=O)OC(C)(C)C)C3)nc2N(C)C1=O"
  GI50 [nM]: 292
- smiles: "Cc1ccc(NC(=O)c2cccc(C(F)(F)F)c2)cc1N1Cc2cnc(OC3CCN(C(=O)OC(C)(C)C)CC3)nc2N(C)C1=O"
  GI50 [nM]: 288
- smiles: "Cc1ccc(NC(=O)c2cccc(C(F)(F)F)c2)cc1N1Cc2cnc(O[C@H]3CCNC3)nc2N(C)C1=O"
  GI50 [nM]: 1380
- smiles: "CNc1nc(Nc2ccc(C)c(N)c2)ncc1C(=O)Nc1cc(NC(=O)c2cccc(C(F)(F)F)c2)ccc1C"
  GI50 [nM]: 53

Provide reported GI50 for each item, in the same order as listed.
1. Cc1ccc(Nc2ncc3c(n2)N(C)C(=O)N(c2cc(NC(=O)c4cccc(C(F)(F)F)c4)ccc2C)C3)cc1C
2. CNc1nc(Nc2ccc(C)c([N+](=O)[O-])c2)ncc1C(=O)Nc1cc(NC(=O)c2cc(OC)cc(OC)c2)ccc1C
3. Cc1ccc(Oc2ncc3c(n2)N(C)C(=O)N(c2cc(NC(=O)c4cccc(C(F)(F)F)c4)ccc2C)C3)cc1N

[61, 2030, 15]
